Sourced from PubChem BioAssay (NCI)

test-name: NCI Yeast Anticancer Drug Screen. Data for the cln2 rad14 strain (AID 165)
condition-description: S. cerevisiae cln2 rad14 strain, at 50.0 µM (retest, dose inferred, filed as 5.0), hits give high values
Compounds without any hit were thinned out: in the full panel of roughly 79,000, 15% have a hit.
Rule: growth inhibition under 70% gives condition not met, otherwise condition met.

Identify whether the reported growth inhibition of the following compound is 70% or greater: Cc1cc(Br)c(N2C3=C(CC4=C2CCCC4=O)C(=O)CCC3)c(Br)c1
condition met

Identify whether the reported growth inhibition of the following compound is 70% or greater: Cc1c2ccnc(C(N)=O)c2c(C)c2c1[nH]c1ccccc12
condition met

Identify whether the reported growth inhibition of the following compound is 70% or greater: COc1cc2c(cc1O)C1Cc3ccc(OC)c(O)c3C(C2)N1C (stereo not given)
condition not met

Identify whether the reported growth inhibition of the following compound is 70% or greater: CSC(=S)N/N=C(\C)c1nccnc1C
condition met

Identify whether the reported growth inhibition of the following compound is 70% or greater: Nc1ccccc1OCC(O)CN1CCN(Cc2ccccc2)CC1 (stereo not given)
condition not met

Identify whether the reported growth inhibition of the following compound is 70% or greater: COC/C=N/Nc1ccc([N+](=O)[O-])cc1
condition met

Identify whether the reported growth inhibition of the following compound is 70% or greater: O=[N+]([O-])c1ccc(NSc2ccccc2)cc1
condition met

Identify whether the reported growth inhibition of the following compound is 70% or greater: O=C1NC(=O)N(c2ccc([N+](=O)[O-])cc2)C1=O
condition not met

Identify whether the reported growth inhibition of the following compound is 70% or greater: Cc1cc2c(cc1Cl)Sc1nnc(C)n1S2(=O)=O
condition not met

====

test-name: NCI Yeast Anticancer Drug Screen. Data for the cln2 rad14 strain (AID 165)
condition-description: S. cerevisiae cln2 rad14 strain, at 50.0 µM (retest, dose inferred, filed as 5.0), hits give high values
Compounds without any hit were thinned out: in the full panel of roughly 79,000, 15% have a hit.
Rule: growth inhibition under 20% gives NOT MET, otherwise MET.

Identify whether the reported growth inhibition of the following compound is 20% or greater: O=C(CCN1CCCCC1)/C(=C\c1ccc(Cl)cc1)c1ccccc1
MET

Identify whether the reported growth inhibition of the following compound is 20% or greater: C/C(=C/c1ccccc1)C(=O)C1C(c2ccccc2)CC(O)C(C)C1c1ccccc1 (centres undefined)
MET

Identify whether the reported growth inhibition of the following compound is 20% or greater: CCN(CC)CCN1C(=O)c2c(c3c4cccc(Cl)c4n(C4OC(CO)C(OC)C(O)C4O)c3c3[nH]c4c(Cl)cccc4c23)C1=O (centres undefined)
MET

Identify whether the reported growth inhibition of the following compound is 20% or greater: CN(C)CC(CN(C)C)C(=O)c1ccc(Oc2ccc(Cl)c(Cl)c2)cc1
MET

Identify whether the reported growth inhibition of the following compound is 20% or greater: CCCCCCCCCCCCCCCCCCn1[se]c2ccccc2c1=O
NOT MET

Identify whether the reported growth inhibition of the following compound is 20% or greater: CN1c2ccccc2C(C)(C)C12C=Cc1cc(O)ccc1O2 (centres undefined)
MET

Identify whether the reported growth inhibition of the following compound is 20% or greater: CCOC(=O)C(CCc1ccccc1[N+](=O)[O-])C(C)=O (centres undefined)
NOT MET

Identify whether the reported growth inhibition of the following compound is 20% or greater: Clc1ccc(-c2nc3ccc(Cl)cc3[nH]2)cc1
MET

Identify whether the reported growth inhibition of the following compound is 20% or greater: CCNCCNc1cc(O)c2c(c1O)C(=O)c1ccccc1C2=O
MET

Identify whether the reported growth inhibition of the following compound is 20% or greater: O=[N+]([O-])c1ccc(-n2ncc3cccnc32)c([N+](=O)[O-])c1
MET

Identify whether the reported growth inhibition of the following compound is 20% or greater: CCCc1cc(=O)oc2c3c(c4c(c12)OC(C)(C)C=C4)O[C@@H](C)[C@H](C)[C@H]3O
MET

Identify whether the reported growth inhibition of the following compound is 20% or greater: CCOC(=O)CC(NC(=O)c1[nH]cnc1/N=N/N(C)C)C(=O)OCC (centres undefined)
MET

Identify whether the reported growth inhibition of the following compound is 20% or greater: COc1ccc(NC(=O)OC(C)C)c(OC)c1
NOT MET

Identify whether the reported growth inhibition of the following compound is 20% or greater: NC(=O)NN=C1CSSC1
NOT MET

Identify whether the reported growth inhibition of the following compound is 20% or greater: COc1cc2c(c(OC)c1OC)-c1ccc(SC)c(=O)cc1[C@@H](NC1OC(COC(C)=O)C(OC(C)=O)C(OC(C)=O)C1OC(C)=O)CC2 (some centres undefined)
NOT MET

Identify whether the reported growth inhibition of the following compound is 20% or greater: Cc1c(CC=C(c2ccccc2)c2ccccc2)cccc1C[N+](C)(C)C
MET

Identify whether the reported growth inhibition of the following compound is 20% or greater: C=C(c1ccccc1)[N+](=O)[O-]
MET

Identify whether the reported growth inhibition of the following compound is 20% or greater: CC1CC(C)CC(NC2=NCCO2)C1 (centres undefined)
NOT MET

Identify whether the reported growth inhibition of the following compound is 20% or greater: CC(C)C(NC(=O)/C=C\c1ccccc1)C(=O)O (centres undefined)
NOT MET

Identify whether the reported growth inhibition of the following compound is 20% or greater: S=C(N/N=C(/c1ccccc1)c1ccccn1)Nc1cccc(Cl)c1
MET

Identify whether the reported growth inhibition of the following compound is 20% or greater: CC1CCC(C(C)C2C(O)CC3C4CC=C5CC(O)CCC5(C)C4CCC32C)NC1 (centres undefined)
MET

Identify whether the reported growth inhibition of the following compound is 20% or greater: CCN(CC)CCOC(=O)c1ccc(N=Nc2cc(Cl)c(C)cc2O)cc1
MET

Identify whether the reported growth inhibition of the following compound is 20% or greater: CCOC(=O)c1csc(/C=C/c2cc(OC)c(OC)c(OC)c2)n1
NOT MET
